Overview of reported Ki across a group of compounds:
Biological target: Rat Kidney Cortex (α2AB) (Rattus norvegicus, UniProt P19328)
Construct: Membrane suspensions were prepared from human cerebral cortex (HCC) obtained from the UCI Organ and Tissue Bank and rat kidney cortex (RKC); from tissue; host or cells: rat kidney cortex
Sequence (P19328 whole entry): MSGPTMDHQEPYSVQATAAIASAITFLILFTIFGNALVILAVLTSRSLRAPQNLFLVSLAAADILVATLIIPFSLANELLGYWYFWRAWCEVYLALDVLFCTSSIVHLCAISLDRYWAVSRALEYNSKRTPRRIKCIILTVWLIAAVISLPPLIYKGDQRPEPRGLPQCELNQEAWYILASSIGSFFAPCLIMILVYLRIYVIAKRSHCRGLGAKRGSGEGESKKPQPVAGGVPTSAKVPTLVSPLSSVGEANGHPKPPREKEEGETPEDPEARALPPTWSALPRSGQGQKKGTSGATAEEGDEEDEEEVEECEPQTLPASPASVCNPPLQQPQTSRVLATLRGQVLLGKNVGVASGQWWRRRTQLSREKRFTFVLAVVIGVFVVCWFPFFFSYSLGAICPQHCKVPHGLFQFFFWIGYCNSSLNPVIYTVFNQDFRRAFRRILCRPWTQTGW
Assay: Radioligand binding, [3H]rauwolscine, rat kidney cortex (RKC) membranes
Conditions: values marked †: rat kidney cortex, 0° C., 120 minutes, read-out: Ki (nM) α2B (RKC)†
Method: Tissue preparation: Membrane suspensions were prepared from human cerebral cortex (HCC) obtained from the UCI Organ and Tissue Bank and rat kidney cortex (RKC). […] Binding studies: The radioligands [^3H]rauwolscine (specific activity 80 Ci/mmol) and [^3H]prazosin (specific activity 76 Ci/mmol) were obtained from New England Nuclear, Boston, Mass. […] The filters were then oven dried and transferred to scintillation vials containing 5 ml of Beckman's Ready Protein® scintillation cocktail for counting. […]
Quick note: give the figure in nM, leave out the unit.

Example compounds with recorded Ki:
| compound | unit-string | Ki |
| --- | --- | --- |
| CCCCNC1=NCCO1 | nM | 317 |
| CC(C)C1C2CCC(C2)C1NC1=NCCO1 (centres unmarked) | nM | 58 |
| C1CCC(C2C3CCC(C3)C2NC2=NCCN2)CC1 (centres unmarked) | nM | 5100 |
| CCCCC1C2CCC(C2)C1NC1=NCCS1 (centres unmarked) | nM | 167 |

// switching to the query compound
// recorded Ki for CCCCC1C2CCC(C2)C1NC1=NCCO1 (centres unmarked) : 59

* * *

target: rat α2B adrenoceptor (CHO-RNG) (Rattus norvegicus, UniProt P19328); construct: expressed in transfected cells; host or cells: CHO (CHO-RNG); experiment: Radioligand binding, [3H]rauwolscine, CHO-RNG cell membranes; settings: 22° C., 30 minutes, read-out: Ki (nM) α2B (CHO-RNG)
Sequence (P19328 whole entry): as above
reported-endpoint: Ki (nM)
Quick note: give the figure in nM, leave out the unit.

Example compounds with recorded Ki:
| compound | reported-endpoint | number |
| --- | --- | --- |
| C1COC(NC2CC3CCC2CC3)=N1 (stereo not shown) | Ki | 770 |
| CCCC1CCCCC1NC1=NCCO1 (stereo not shown) | Ki | 8.3 |
| c1cc2c(cc1C1C3CCC(C3)C1NC1=NCCO1)OCO2 (stereo not shown) | Ki | 4.6 |
| c1ccc(C2C3CCC(C3)C2NC2=NCCO2)cc1 (stereo not shown) [drawing 7] | Ki | 7.8 |
| c1ccc(CCNC2=NCCO2)cc1 | Ki | 4170 |
| C1COC(NC2CC3CCC2C3)=N1 (stereo not shown) | Ki | 11.5 |
| CCC1C2CCC(C2)C1NC1=NCCO1 (stereo not shown) | Ki | 616 |
| CCCC1C2CCC(C2)C1NC1=NCCO1 (stereo not shown) [drawing 17] | Ki | 256 |

// recorded Ki for NC1C2CCC(C2)C1c1ccccc1 (stereo not shown) : 6100

// recorded Ki for c1ccc(C2C3CCC(C3)C2NC2=NCCO2)cc1 (stereo not shown) [drawing 10] : 27

// recorded Ki for CC(C)C1C2CCC(C2)C1N (stereo not shown) : 20900

// recorded Ki for C1COC(NC23CC4CC(CC(C4)C2)C3)=N1 [drawing 26] : 358

// recorded Ki for CCC1C2CCC(C2)C1N (stereo not shown) : 57100

// recorded Ki for CCCC1C2CCC(C2)C1NC1=NCCO1 (stereo not shown) [drawing 18] : 28.1

// recorded Ki for C1COC(NC23CC4CC(CC(C4)C2)C3)=N1 [drawing 27] : 1840

// recorded Ki for CC1(C)C2CCC1(C)C(NC1=NCCO1)C2 (stereo not shown) : 1930

From: patent US6706747B2
